Sourced from the supplement of paper PMC10567573

test: protein stability index of a GFP-peptide fusion (GPS, HEK-293T) (PSI 1-6); higher = more stable; conditions: treatment: DMSO; c terminus: a fixed tail appended;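 also: 24-mer peptide tiles fused after GFP, lentivirally expressed, FACS-sorted into six equal bins by GFP/DsRed ratio, decoded by Illumina sequencing, PSI is the read-weighted mean bin number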
MEASURED ATTRIBUTE: protein stability index
Write the number on its own, no unit after it.

Use these answered entries as a reference point.
INSERT INTO measurements (residues, endpoint_result) VALUES
  ('PGLLGSMALSNHYRSEDLLDVDTA [FBXO3]', 4.24),
  ('TGESSEPEAKVLHTKRLYRAVVEA [SMG5]', 3.65),
  ('WEYSSSIQNSDNDLPVVQGSSSFS [TRIM29]', 4.61),
  ('GQQDLFRVLKAYTLYRPEEGYCQA [TBC1D10A]', 2.03),
  ('DSTTTRQRRSRQNPQSPPQDSSVT [HDAC6]', 5.13);

Ask: // lookup protein stability index for SKSSHPLIRSLFHGFLFMIFQIGV [SOAT1]
Result: 2.81

Ask: Name the recorded protein stability index for CEPPSYRPMHHEDFKEDLKKFRTK [CDC25A] .
Result: 4.89

Ask: # lookup: protein stability index of IGDTSVSYKYTSRYVLKAGQTVTI [LMNB1]
Result: 2.49

Ask: Given the sequence GTTPQISPSTLIGSLRTLELGSES [HDAC6] , what is its reported protein stability index?
Result: 4.52

Ask: What protein stability index value was documented for this sequence, VTLALLGSYTVQSELGDYDPDECG [EPB41L3] ?
Result: 2.46

Ask: Reported protein stability index, sequence MSGGPMGGRPGGRGAPAVQQNIPS [WAS] : ____
Result: 4.31

Ask: Data request, read-out protein stability index, for GGQCCRRQDSPSPDFYKQSSPNLQ [PCDHGC5]
Result: 3.77

Ask: Name the reported protein stability index value associated with the sequence QESKNQVHRRGEYNVYSTFQSHEP [PPP2R2B]
Result: 3.72
